- Test system: Plasmodium falciparum
- assayExplanation: microbe, parasite or virus in culture
- conditionDescription: Dd2, 72 h
- Description: Antiplasmodial activity against Plasmodium falciparum Dd2 harboring polymorphic DHFR after 72 hrs by SYBR green assay
endpoint: pIC50
Give bare numbers, as −log10 of the molar value.

{"columns": ["smilesRepr", "pIC50"],
 "data": [
  ["Nc1nc(N)c2nc(-c3ccccc3)c(N)nc2n1", 3.85]
]}

Please examine the following record next.
// pIC50 lookup, compound = COc1cc(Cc2cnc(N)nc2N)cc(OC)c1OC , result: 3.77

---

- System: Plasmodium falciparum
- assayExplanation: microbe, parasite or virus in culture
- conditionDescription: Dd2, 72 h
- Description: Antiplasmodial activity against transgenic Plasmodium falciparum Dd2 pDT harboring polymorphic DHFR after 72 hrs by SYBR green assay
endpoint: IC50 (µM)
Numbers only, in µM.

Reported IC50 of Nc1nc(N)c2nc(-c3ccccc3)c(N)nc2n1 : 4

---

- System: Plasmodium falciparum
- assayExplanation: microbe, parasite or virus in culture
- conditionDescription: XF12, 72 h
- Description: Antiplasmodial activity against Plasmodium falciparum XF12 after 72 hrs by SYBR green assay
endpoint: IC50
Express your answer as a number followed by its unit.

# IC50 (molecule: Nc1nc(N)c2nc(-c3ccccc3)c(N)nc2n1 ) is 17.1 µM

---

- Tested on: Plasmodium falciparum
- assayExplanation: microbe, parasite or virus in culture
- conditionDescription: JC9, 72 h
- Description: Antiplasmodial activity against Plasmodium falciparum JC9 after 72 hrs by SYBR green assay
endpoint: pIC50
Give bare numbers, as −log10 of the molar value.

Record Nc1nc(N)c2nc(-c3ccccc3)c(N)nc2n1 , field pIC50: 4.36

---

For each of the molecules below, state its pIC50.
- Tested on: Plasmodium falciparum
- assayExplanation: microbe, parasite or virus in culture
- conditionDescription: GB4, 72 h
- Description: Antiplasmodial activity against Plasmodium falciparum GB4 harboring polymorphic DHFR after 72 hrs by SYBR green assay
One number for each entry, as −log10 of the molar value.

Record pIC50 per entry; entries follow.
1. Nc1nc(N)c2nc(-c3ccccc3)c(N)nc2n1
2. COc1cc(Cc2cnc(N)nc2N)cc(OC)c1OC

Solution:
1. 5.28
2. 5.39

---

- System: Plasmodium falciparum
- assayExplanation: microbe, parasite or virus in culture
- conditionDescription: W2, 72 h
- Description: Antiplasmodial activity against Plasmodium falciparum W2 harboring polymorphic DHFR after 72 hrs by SYBR green assay
endpoint: pIC50
Give bare numbers, as −log10 of the molar value.

Lab book: pIC50 of Nc1nc(N)c2nc(-c3ccccc3)c(N)nc2n1 noted as 4.02

---

- System: Plasmodium falciparum
- assayExplanation: microbe, parasite or virus in culture
- conditionDescription: D2, 72 h
- Description: Antiplasmodial activity against Plasmodium falciparum D2 after 72 hrs by SYBR green assay
endpoint: IC50
Kindly write the number and append the unit.

Nc1nc(N)c2nc(-c3ccccc3)c(N)nc2n1 yielded IC50 of 22.2 µM

---

- Test system: Plasmodium falciparum
- assayExplanation: microbe, parasite or virus in culture
- conditionDescription: NIC, 72 h
- Description: Antiplasmodial activity against Plasmodium falciparum NIC after 72 hrs by SYBR green assay
endpoint: pIC50
Numbers only, as −log10 of the molar value.

Noted for Nc1nc(N)c2nc(-c3ccccc3)c(N)nc2n1 : its pIC50 reads 4.95
